# System: A-549
# experimental.protocol: cells
# Type: cell-based, human
# experimental.conditions: Homo sapiens, A549, read-out: Antiproliferative activity IC50, A-549 human lung carcinoma
observed.property: pIC50
# pIC50: negative log10 of molar concentration; output just the value

Endpoint output: pIC50 of C#CCCOC(=O)NC1C[C@@H]([C@H](O)/C=C/C=C(\C)C[C@@H](C)/C=C(C)\C=C\[C@H]2CC=CC(=O)O2)O[C@@H](/C=C/C)[C@H]1C (stereo partly drawn) . Value?
8.28

Can you handle C/C=C/[C@@H]1O[C@H]([C@@H](N)/C=C/C=C(\C)C[C@@H](C)/C=C(C)\C=C\[C@H]2CC=CC(=O)O2)C[C@@H](O)[C@@H]1C [Compound 17, 16S-aminoratjadone] next?
8.88

Can you handle "C#CCCOC(=O)N[C@@H](/C=C/C=C(\C)C[C@@H](C)/C=C(C)\C=C\[C@H]1CC=CC(=O)O1)[C@@H]1C[C@@H](O)[C@H](C)[C@H](/C=C/C)O1" next?
8.61

====

# System: A-549
# experimental.protocol: cells
# Assay type: cell-based, human
# experimental.conditions: Homo sapiens, A549, read-out: Antiproliferative activity IC50, A-549 human lung carcinoma
observed.property: pIC50
# pIC50: negative log10 of molar concentration; output just the value

Endpoint output: pIC50 of "C/C=C/[C@@H]1O[C@H](C(=O)/C=C/C=C(\C)C[C@@H](C)/C=C(C)\C=C\[C@H]2CC=CC(=O)O2)CC(=O)[C@@H]1C" . Value?
8.01

Can you handle C#CCNC1C[C@@H]([C@H](O)/C=C/C=C(\C)C[C@@H](C)/C=C(C)\C=C\[C@H]2CC=CC(=O)O2)O[C@@H](/C=C/C)[C@H]1C (stereo partly shown) next?
8.95

Can you handle C/C=C/[C@@H]1O[C@H]([C@H](N)/C=C/C=C(\C)C[C@@H](C)/C=C(C)\C=C\[C@H]2CC=CC(=O)O2)C[C@@H](O)[C@@H]1C [Compound 16, 16R-aminoratjadone] next?
9.51

Can you handle "C#CCCC(=O)NCCSSCCC(=O)N[C@H](/C=C/C=C(\C)C[C@@H](C)/C=C(C)\C=C\[C@H]1CC=CC(=O)O1)[C@@H]1C[C@@H](O)[C@H](C)[C@H](/C=C/C)O1" next?
9.07

====

# study.system: CRM1 (Homo sapiens)
# experimental.protocol: Nuclear export inhibition, fluorescent translocation biosensor in recombinant HeLa cells
# Assay type: cell-based
# Parameters: This cellular assay uses HeLa cells that express a recombinant fusion protein; endogenous in cells; host or cells: HeLa cells stably expressing the NLS-GST-GFP-RevNES translocation biosensor (HeLaRevBio)
# experimental.conditions: nuclear export inhibition IC50, HeLa cells expressing translocation biosensor, 1 h incubation
Lab note: cut-off is 10 nM. Strictly less in IC50 is 1.0. Exactly 10 nM or more is 0.0.

is_below(IC50, 10 nM) for "C#CCCC(=O)N[C@H](/C=C/C=C(\C)C[C@@H](C)/C=C(C)\C=C\[C@H]1CC=CC(=O)O1)[C@@H]1C[C@@H](O)[C@H](C)[C@H](/C=C/C)O1" ?
0.0

Can you handle C/C=C/[C@@H]1O[C@H]([C@H](O)/C=C/C=C(\C)C[C@@H](C)/C=C(C)\C=C\[C@H]2CC=CC(=O)O2)CC(N)[C@@H]1C (stereo partly drawn) next?
0.0

Can you handle C/C=C/[C@@H]1O[C@H]([C@H](N)/C=C/C=C(\C)C[C@@H](C)/C=C(C)\C=C\[C@H]2CC=CC(=O)O2)C[C@@H](O)[C@@H]1C [Compound 16, 16R-aminoratjadone] next?
1.0

Can you handle C/C=C/[C@@H]1O[C@H]([C@@H](/C=C/C=C(\C)C[C@@H](C)/C=C(C)\C=C\[C@H]2CC=CC(=O)O2)NC(=O)CCSSc2ccccn2)C[C@@H](O)[C@@H]1C [Compound 31, 2-PySS(CH2)2(CO)-16R-Aminoratjadone] next?
0.0

Can you handle "C/C=C/[C@@H]1O[C@H]([C@H](O)/C=C/C=C(\C)C[C@@H](C)/C=C(C)\C=C\[C@H]2CC=CC(=O)O2)CC(=O)[C@@H]1C" next?
0.0

Can you handle "C/C=C/[C@@H]1O[C@H](C(=O)/C=C/C=C(\C)C[C@@H](C)/C=C(C)\C=C\[C@H]2CC=CC(=O)O2)CC(=O)[C@@H]1C" next?
0.0

Can you handle C#CCNC1C[C@@H]([C@H](O)/C=C/C=C(\C)C[C@@H](C)/C=C(C)\C=C\[C@H]2CC=CC(=O)O2)O[C@@H](/C=C/C)[C@H]1C (stereo partly drawn) next?
0.0

Can you handle "C/C=C/[C@@H]1O[C@H](C(=O)/C=C/C=C(\C)C[C@@H](C)/C=C(C)\C=C\[C@H]2CC=CC(=O)O2)C[C@@H](O)[C@@H]1C" next?
0.0

Can you handle CC=CC1OC(C(C=CC=C(C)CC(C)C=C(C)C=CC2CC=CC(=O)O2)NC(=O)OCCc2cn(CCOCCOCCOCCNC(=O)CCCCC3SCC4NC(=O)NC43)nn2)CC(O)C1C (stereo not drawn) [Compound 36, biotin-PEG3-16S-aminoratjadone] next?
0.0

Can you handle "C#CCCOC(=O)N[C@@H](/C=C/C=C(\C)C[C@@H](C)/C=C(C)\C=C\[C@H]1CC=CC(=O)O1)[C@@H]1C[C@@H](O)[C@H](C)[C@H](/C=C/C)O1" next?
0.0

Can you handle "C#CCCOC(=O)N[C@H](/C=C/C=C(\C)C[C@@H](C)/C=C(C)\C=C\[C@H]1CC=CC(=O)O1)[C@@H]1C[C@@H](O)[C@H](C)[C@H](/C=C/C)O1" next?
0.0

Can you handle C/C=C/[C@@H]1O[C@H]([C@@H](N)/C=C/C=C(\C)C[C@@H](C)/C=C(C)\C=C\[C@H]2CC=CC(=O)O2)C[C@@H](O)[C@@H]1C [Compound 17, 16S-aminoratjadone] next?
1.0

====

# study.system: CRM1 (Homo sapiens, UniProt O14980)
# Sequence (O14980 whole entry): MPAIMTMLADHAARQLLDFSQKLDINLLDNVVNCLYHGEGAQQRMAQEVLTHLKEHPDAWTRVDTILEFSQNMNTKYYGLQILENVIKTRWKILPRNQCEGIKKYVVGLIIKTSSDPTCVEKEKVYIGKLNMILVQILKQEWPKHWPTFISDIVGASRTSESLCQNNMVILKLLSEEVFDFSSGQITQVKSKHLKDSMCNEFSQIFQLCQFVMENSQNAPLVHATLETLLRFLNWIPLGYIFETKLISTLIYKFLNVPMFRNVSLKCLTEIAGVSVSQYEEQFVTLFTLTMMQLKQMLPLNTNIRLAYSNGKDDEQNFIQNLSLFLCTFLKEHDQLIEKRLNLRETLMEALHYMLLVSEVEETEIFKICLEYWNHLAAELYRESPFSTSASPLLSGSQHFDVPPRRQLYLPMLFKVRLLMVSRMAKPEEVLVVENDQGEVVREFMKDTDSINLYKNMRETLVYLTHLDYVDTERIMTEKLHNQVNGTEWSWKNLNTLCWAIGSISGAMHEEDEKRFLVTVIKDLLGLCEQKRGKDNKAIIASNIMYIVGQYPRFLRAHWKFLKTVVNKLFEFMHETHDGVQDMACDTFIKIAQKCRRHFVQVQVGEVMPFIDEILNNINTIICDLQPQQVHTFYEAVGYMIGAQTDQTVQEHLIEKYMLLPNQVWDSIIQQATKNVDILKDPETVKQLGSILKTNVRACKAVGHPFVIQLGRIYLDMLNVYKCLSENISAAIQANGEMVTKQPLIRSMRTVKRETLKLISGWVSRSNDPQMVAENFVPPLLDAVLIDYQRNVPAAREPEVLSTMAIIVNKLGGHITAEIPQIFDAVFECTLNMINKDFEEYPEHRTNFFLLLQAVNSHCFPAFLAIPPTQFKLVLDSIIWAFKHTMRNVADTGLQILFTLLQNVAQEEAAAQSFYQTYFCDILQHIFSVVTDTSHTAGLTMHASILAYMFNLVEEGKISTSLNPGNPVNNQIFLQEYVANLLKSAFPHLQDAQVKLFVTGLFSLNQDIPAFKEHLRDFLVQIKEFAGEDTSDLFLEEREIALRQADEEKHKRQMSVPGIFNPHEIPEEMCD
# experimental.protocol: Nuclear export inhibition, fluorescent translocation biosensor in recombinant HeLa cells
# Assay type: cell-based
# Design: This cellular assay uses HeLa cells that express a recombinant fusion protein; endogenous in cells; host or cells: HeLa cells stably expressing the NLS-GST-GFP-RevNES translocation biosensor (HeLaRevBio)
# experimental.conditions: HeLa cells expressing translocation biosensor, 1 h incubation; read-out: nuclear export inhibition IC50
observed.property: IC50 (nM)
Respond with the bare value in nM.

Endpoint output: IC50 of CC=CC1OC(C(O)C=CC=C(C)CC(C)C=C(C)C=CC2CC=CC(=O)O2)CC(O)C1C (single isomer, unassigned; (+)) [Compound 1, (+)-ratjadone A, reference compound] . Value?
1.2
